- ASSAY OVERVIEW: protein stability index of a GFP-peptide fusion (yeast GPS) (PSI 1-4); higher = more stable; sorted into four equal gates, so the index is relative within each strain
- MEASUREMENT SETUP: san1∆
OUTCOME MEASURE: protein stability index

Consider the reported protein stability index for these sequences:
>>> endpoint_result("QIISNAHNKPSLFSKIK [YAR002W/NUP60]")
2.77
>>> endpoint_result("IDLEAPVQIVKRITQIT [RPS20]")
1.78
>>> endpoint_result("RNSVKLLSKLLLKHPFK [YCS4]")
1.92
>>> endpoint_result("RENALYDYYALQLLPLQ [SNF2]")
2.72
>>> endpoint_result("LRKQKDSSTTSSNSQQS [ITC1]")
3.07

VIGGNSLFHIVVDTEET [SMC3] yielded protein stability index of 2.54

FPGDSFPVDPTTPVKLG [RRP40] yielded protein stability index of 2.65

IANMVLPPEKIYSPLHS [SIR2] yielded protein stability index of 1.73

WQIEEAGNSQITSGGFL [SRB5] yielded protein stability index of 3.07

###

- ASSAY OVERVIEW: protein stability index of a GFP-peptide fusion (yeast GPS) (PSI 1-4); higher = more stable; sorted into four equal gates, so the index is relative within each strain
- MEASUREMENT SETUP: san1∆
OUTCOME MEASURE: protein stability index
Number, no unit, nothing else.

Consider the reported protein stability index for these sequences:
>>> endpoint_result("TNAKIPQFDSTQPKSSS [SSN3]")
3.09
>>> endpoint_result("ELYEVDVLKVNTLVRPN [RPL25]")
2.72
>>> endpoint_result("TVTNSKFRSSILRKSFD [RPN2]")
2.66

MSVSDNDQALIKVLLRQ [RET1] yielded protein stability index of 2.71

DNEEWMNDVINTEEVNR [LIN1] yielded protein stability index of 3.23

IKSKADAWVSAAHYNRE [PRP8] yielded protein stability index of 2.6

RQLAGAIGYEPLSLTHR [DIS3] yielded protein stability index of 2.86

###

- ASSAY OVERVIEW: protein stability index of a GFP-peptide fusion (yeast GPS) (PSI 1-4); higher = more stable; sorted into four equal gates, so the index is relative within each strain
- MEASUREMENT SETUP: ubr1∆
Each record's class is read off its protein stability index using these ranges: range 1 = under 2, range 2 = from 2 up to 3, range 3 = 3 and over

>>> group_label("QVGLNFELSFTGAPPYY [YMR129W/POM152]")
"range 1"
>>> group_label("VLCNSNISKSRAKPVTN [RRP6]")
"range 2"
>>> group_label("ESAAVYNGRGARERKTA [SNF2]")
"range 2"
>>> group_label("SSNSQQSTPQPDDMVEI [ITC1]")
"range 2"
>>> group_label("SEVGDAFIFGLQDELKE [SMC3]")
"range 3"
>>> group_label("EFQPSGNVTELYGTAIG [PRE5]")
"range 1"
>>> group_label("SSIQESLLSLVGHLSIL [ECM29]")
"range 1"
>>> group_label("IKKKKKKSKNGTISKTG [SRP14]")
"range 3"

QUERY: Input SDPVCLFVCNKDPDVPL [POP3] ; output its category
RESULT: range 2

QUERY: Input HDLLQIIHFHSHPEKRM [SSN3] ; output its category
RESULT: range 2

QUERY: Input NEESTNERLEINQEKPV [SIR4] ; output its category
RESULT: range 3

###

- ASSAY OVERVIEW: protein stability index of a GFP-peptide fusion (yeast GPS) (PSI 1-4); higher = more stable; sorted into four equal gates, so the index is relative within each strain
- MEASUREMENT SETUP: doa10∆
OUTCOME MEASURE: protein stability index
Number, no unit, nothing else.

Consider the reported protein stability index for these sequences:
>>> endpoint_result("NMEKEKDRIIDERTKEF [YIL149C/MLP2]")
3.11
>>> endpoint_result("PLAKIYLEENKSDSQYR [MED1]")
3.15
>>> endpoint_result("IVLLDDEGKEIPATIFD [TAF14]")
2.82

YEYGAVSVLLISKDCSA [BRR2] yielded protein stability index of 2.12

KVKAGVRSANEDGTFSV [RRP43] yielded protein stability index of 3.2

SLVSTQSSSSTRSHEYG [REC8] yielded protein stability index of 2.86

RYNGGNDNIGANRSRFN [SMB1] yielded protein stability index of 3.24

DFPHLTPKLQTQLSYLI [YCS4] yielded protein stability index of 2.82

LSGLSADKPFTRLTAYQ [YML031W/NDC1] yielded protein stability index of 2.95

QELLNAETLCFTVNVLY [RPN3] yielded protein stability index of 3.11

MAKCLDNPDQGISDMCR [YCS4] yielded protein stability index of 3.39

GNIISSDKTIVPTSIQT [SIN4] yielded protein stability index of 2.42

TGNNNNIATQQNMQQSL [GAL11] yielded protein stability index of 2.06

NVTQNEQQWITRAQYLA [SRP68] yielded protein stability index of 1.42

FDNKSTSEEQEALLRSL [SNF2] yielded protein stability index of 3.32

QIKEIKEVIELPVKHPE [RPT6] yielded protein stability index of 2.98

TKFLAKNGVIPEESKGS [SWP82] yielded protein stability index of 3.19

###

- ASSAY OVERVIEW: protein stability index of a GFP-peptide fusion (yeast GPS) (PSI 1-4); higher = more stable; sorted into four equal gates, so the index is relative within each strain
- MEASUREMENT SETUP: doa10∆
Each record's class is read off its protein stability index using these ranges: range A: < 2; range B: ≥ 2 and < 3; range C: ≥ 3

>>> group_label("VACLFITISIHGKPTKG [SSN8]")
"range A"
>>> group_label("ELKYQRSLRATAEERVG [RPL15A]")
"range A"

QUERY: Input ITSGGFLLKAYINVSRG [SRB5] ; output its category
RESULT: range B

QUERY: Input SRSTEKKNDMNTSAKNK [SIR4] ; output its category
RESULT: range B

QUERY: Input IEPLEINIQSFKDVEHI [BRR2] ; output its category
RESULT: range B

###

- ASSAY OVERVIEW: protein stability index of a GFP-peptide fusion (yeast GPS) (PSI 1-4); higher = more stable; sorted into four equal gates, so the index is relative within each strain
- MEASUREMENT SETUP: doa10∆
Reported protein stability index values for the following sequences.
Number, no unit, nothing else.

Consider the reported protein stability index for these sequences:
>>> endpoint_result("SPVSSVHTANFSERGSN [MED2]")
2.71
>>> endpoint_result("EDGPRPFKVFLDIGLQR [RPL5]")
3

IIEQLSIAAERYDYSDE [YCG1] yielded protein stability index of 2.51

FLRTQFLKLYVLVKWTR [RGR1] yielded protein stability index of 1.46

HLGERAASVIGMLVALG [RPC82] yielded protein stability index of 2.05

ETQPGCNEEQTLEAKIG [RPO31] yielded protein stability index of 3.21

KIDGNPDELIKAGVEAI [PRE5] yielded protein stability index of 3.32

EHKPVSPDKIGTFTADY [SSN2] yielded protein stability index of 2.98

###

- ASSAY OVERVIEW: protein stability index of a GFP-peptide fusion (yeast GPS) (PSI 1-4); higher = more stable; sorted into four equal gates, so the index is relative within each strain
- MEASUREMENT SETUP: doa10∆
OUTCOME MEASURE: protein stability index
Number, no unit, nothing else.

Consider the reported protein stability index for these sequences:
>>> endpoint_result("PNLGPQLWLNSSGDFDD [GRR1]")
2.97
>>> endpoint_result("RAANQGALPPDLSLIVK [CYT1]")
2.95
>>> endpoint_result("SSENNQIILAYIKYNIL [SRP68]")
3.06
>>> endpoint_result("KLNELDELILEAKERYT [NNF1]")
2.98
>>> endpoint_result("GLLKRGDTVRILDTSQS [SNU114]")
3.08

Pending sequence:
DIEVPDVNALKFNNTQR [SNF12] yielded protein stability index of 2.97

###

- ASSAY OVERVIEW: protein stability index of a GFP-peptide fusion (yeast GPS) (PSI 1-4); higher = more stable; sorted into four equal gates, so the index is relative within each strain
- MEASUREMENT SETUP: pdr5∆
OUTCOME MEASURE: protein stability index
Number, no unit, nothing else.

>>> endpoint_result("LITTYSKLSKNISFYKL [SIN4]")
2.47
>>> endpoint_result("VWFSHPRRYGKGSRQCR [RPS29A]")
3.24

LAINAKTITSGLKYALA [RPB2] yielded protein stability index of 2.83

GNNVQENELVITSIPKP [RMP1] yielded protein stability index of 3.4

ELPTQLALEIIVRPAKG [RRP46] yielded protein stability index of 1.57

FMDEIDSIGSTRVEGSG [RPT6] yielded protein stability index of 2.56

ERRMQVTAEDFKQAKER [RPT2] yielded protein stability index of 3.29
